Origin of the recorded values: ChEMBL document CHEMBL2218924

- Experimental target: Mitogen-activated protein kinase 14 (Homo sapiens)
- Condition description: at 1 µM
Property: residual activity (%)
Field format: number, assumed %, no unit text.

Known residual activity results, listed for orientation:
O=C1Nc2cc(Br)ccc2/C1=C1/Nc2ccccc2/C1=N\O	85
CC(=O)O/N=C1\C(=C2\C(=O)Nc3cc(Br)ccc32)Nc2ccccc21	88
O=Nc1c(-c2c(O)[nH]c3ccccc23)[nH]c2ccccc12	94
CC[n+]1c(/C=C/N(C)c2ccccc2)n(-c2ccccc2)c2ccc(-c3nc4ccccc4s3)cc21	111

Recorded residual activity for Nc1n[nH]c2nnc(-c3c(-c4ccccc4)nn4ccccc34)cc12 , please?
78

---

- Experimental target: cAMP-dependent protein kinase catalytic subunit PRKX (Homo sapiens) (UniProt P51817)
- Sequence (P51817 whole entry): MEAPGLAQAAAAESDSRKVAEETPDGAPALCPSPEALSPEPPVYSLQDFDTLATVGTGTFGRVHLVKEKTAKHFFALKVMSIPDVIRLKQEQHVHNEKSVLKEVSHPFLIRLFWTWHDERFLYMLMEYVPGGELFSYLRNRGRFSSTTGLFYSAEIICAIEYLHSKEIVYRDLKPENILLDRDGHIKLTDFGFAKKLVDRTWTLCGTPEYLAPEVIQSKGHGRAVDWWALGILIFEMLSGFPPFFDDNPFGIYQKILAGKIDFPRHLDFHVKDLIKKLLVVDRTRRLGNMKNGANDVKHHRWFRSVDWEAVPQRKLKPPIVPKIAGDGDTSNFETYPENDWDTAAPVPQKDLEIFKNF
- Condition description: at 1 µM
Property: residual activity
Answer by giving the amount and then stating its unit.

Reference set, count: 5
Oc1c2ccccc2c2c3c(cccc13)N=N2	86%
CO[C@H]1[C@@H](OC)C[C@H](C)[C@@H](OC)C2=CC(=O)C=C(NC(=O)/C(C)=C/C=C/[C@H](OC)[C@@H](OC(N)=O)/C(C)=C/[C@@H]1C)C2=O	80%
O=C1NC(=O)c2cc(Nc3ccc(F)cc3)c(Nc3ccc(F)cc3)cc21	90%
CCN(CC)C(=O)c1ccc(Nc2nc(OCC3CCCCC3)c3nc[nH]c3n2)cc1	101%
O=C1NC(=O)c2c1c1c3ccccc3[nH]c1c1[nH]c3cc(Br)ccc3c21	85%

Find residual activity (cAMP-dependent protein kinase catalytic subunit PRKX (Homo sapiens) (UniProt P51817)) for the entry Cn1cc(/C=C2\C(=O)Nc3ccc(S(N)(=O)=O)cc32)c2ccccc21
88%

Also Cn1nc2c3c(cccc31)C(=O)c1ccccc1-2 , if possible.
72%

And N#CC(C#N)=C(N)/C(C#N)=C/c1ccc(O)cc1 ?
99%

Entry CCC(=O)Nc1ccc2ncnc(Nc3cccc(Br)c3)c2c1 please
89%

Next up: O=C1Nc2ccccc2/C1=C1/Nc2ccccc2/C1=N\OCCC(O)CO (configuration not stated)
66%

Same thing, different molecule: CC(=O)c1ccc(N2CCOCC2)cc1O
106%

Same read-out for COc1cccc(-c2cc(=O)c3ccccc3o2)c1N ?
90%

---

- Experimental target: Hepatocyte growth factor receptor (Homo sapiens)
- Condition description: at 10 µM
# binarize residual activity: threshold 90% inclusive, high side 1, low side 0

CCC(=O)Nc1ccc2ncnc(Nc3cccc(Br)c3)c2c1	1

Kindly determine if residual activity recorded for Cn1cnc2cc3c(Nc4cccc(Br)c4)ncnc3cc21 is above or exactly 90%.
0

Queued: Cc1cncc2cccc(S(=O)(=O)N3CCCN(C(=O)CN)C[C@H]3C)c12
1

Please answer likewise for CO[C@@H]1[C@H](N(C)C(=O)c2ccccc2)C[C@H]2O[C@]1(C)n1c3ccccc3c3c4c(c5c6ccccc6n2c5c31)C(=O)NC4
0

Then this compound: c1ccc2c(-c3ccncc3)c[nH]c2c1
0

How about O=C1Nc2ccccc2/C1=C1/Nc2ccccc2/C1=N\OCCC(O)CO (stereo not drawn) ?
0

---

- Experimental target: cGMP-dependent protein kinase 1 (Homo sapiens) (UniProt Q13976)
- Sequence (Q13976 whole entry): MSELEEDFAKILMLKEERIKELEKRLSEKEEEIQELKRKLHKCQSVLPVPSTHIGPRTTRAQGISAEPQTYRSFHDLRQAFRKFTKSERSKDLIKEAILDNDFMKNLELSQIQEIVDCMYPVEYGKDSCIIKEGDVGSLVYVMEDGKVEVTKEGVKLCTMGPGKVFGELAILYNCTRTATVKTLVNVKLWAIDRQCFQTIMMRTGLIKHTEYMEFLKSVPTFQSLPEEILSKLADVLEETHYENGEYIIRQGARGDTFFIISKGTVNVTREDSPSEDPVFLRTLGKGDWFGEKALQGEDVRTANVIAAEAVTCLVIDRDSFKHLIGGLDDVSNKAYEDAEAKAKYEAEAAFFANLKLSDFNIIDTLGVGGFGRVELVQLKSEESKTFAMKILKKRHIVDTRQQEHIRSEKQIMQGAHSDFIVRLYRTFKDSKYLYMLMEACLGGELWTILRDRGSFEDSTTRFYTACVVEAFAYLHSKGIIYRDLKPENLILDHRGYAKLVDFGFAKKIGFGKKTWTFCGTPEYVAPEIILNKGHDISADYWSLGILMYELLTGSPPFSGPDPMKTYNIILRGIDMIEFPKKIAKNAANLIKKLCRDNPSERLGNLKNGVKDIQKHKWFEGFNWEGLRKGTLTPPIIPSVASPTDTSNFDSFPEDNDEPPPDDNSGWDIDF
- Condition description: at 1 µM
Property: residual activity

Some molecules with recorded residual activity:
N#Cc1cnc2cnc(NCc3cccnc3)cc2c1Nc1ccc(F)c(Cl)c1	4%
CO[C@H]1C[C@@H]2CC[C@@H](C)[C@@](O)(O2)C(=O)C(=O)N2CCCC[C@H]2C(=O)O[C@H]([C@H](C)C[C@@H]2CC[C@@H](O)[C@H](OC)C2)CC(=O)[C@H](C)/C=C(\C)[C@@H](O)[C@@H](OC)C(=O)[C@H](C)C[C@H](C)/C=C/C=C/C=C/1C	101%

Let us examine a further case.
Looking for the measured residual activity of O=C(O)c1ccc2c3c1cccc3c(=O)n1c3ccccc3nc21 , can you help?
95%
